# System: U251 CNS
# assay.name: NCI-60 one-dose screen, 48 h (100 = growth as untreated, 0 = no growth, -100 = all killed)
# experimental.conditions: 10 µM unless noted
Compounds without any hit were thinned out: in the full panel of roughly 83,000, 20% have a hit.
Label yes (1) for high-side growth (at or above 40%) and no (0) for low-side growth (below it).

Use the examples below as a reference point.
>>> answer_label("C=C1C(=O)O[C@H]2[C@H]1CC/C(COC(=O)CCCCC(=O)OC/C1=C/CC[C@@]3(C)O[C@H]3[C@H]3OC(=O)C(=C)[C@@H]3CC1)=C\\CC[C@@]1(C)O[C@@H]21")
"yes (1)"
>>> answer_label("NS(=O)(=O)c1ccc(C2C3=C(CCCC3=O)OC3=C2C(=O)c2ccccc2C3=O)cc1 (stereo not drawn)")
"no (0)"
>>> answer_label("CCOc1ccc(C2N(c3cc(OC)c(OC)c(OC)c3)C(=O)C2(F)F)cc1 (stereo not drawn)")
"no (0)"
>>> answer_label("Nc1c(C(=O)Nc2ccccn2)sc2nc3c(cc12)C(=O)CCC3")
"no (0)"
>>> answer_label("O=CN1N=C(c2ccc(Cl)cc2)CC1c1cccc(Nc2ccnc3cc(C(F)(F)F)ccc23)c1 (stereo not drawn)")
"yes (1)"

Query string: Say whether CC(=O)Oc1c2c(nc3c1c1ccccc1n3Cc1ccccc1)-c1ccccc1C2 shows growth of 40% or more.
Result string: yes (1)

Query string: API: above_or_equal(metric=growth, cutoff=40%) for item C=C1C(=O)O[C@H]2[C@H]1CC/C(COC(=O)CCC(=O)OC/C1=C/CC[C@@]3(C)O[C@H]3[C@H]3OC(=O)C(=C)[C@@H]3CC1)=C\CC[C@@]1(C)O[C@@H]21
Result string: yes (1)

Query string: Dear colleague, could you confirm whether CCCCN(CCCC)CC(CN(CC)CC)OC(=O)Nc1ccccc1 (stereo not drawn) has growth at or above 40%?
Result string: yes (1)

* * *

# Test system: SF-539 CNS
# assay.name: NCI-60 one-dose screen, 48 h (100 = growth as untreated, 0 = no growth, -100 = all killed)
# experimental.conditions: 10 µM unless noted
Compounds without any hit were thinned out: in the full panel of roughly 83,000, 20% have a hit.
measurement.type: growth (%)
Unit % implied. Number only.

These solved cases illustrate the format of a correct answer.
>>> numeric_result("COc1cc(N=Nc2cc(S(=O)(=O)O)cc3cc(S(=O)(=O)O)cc(O)c23)c(C)cc1N=Nc1c(S(=O)(=O)O)cc2cc(Nc3ccccc3)ccc2c1O")
103
>>> numeric_result("O=S(=O)(O)c1ccc(N=NSc2ccc3ccccc3c2)cc1")
100
>>> numeric_result("O=C1NC(SCc2ccc(F)cc2)=N/C1=C/c1cccc(OCc2ccc(Cl)cc2)c1")
14.1
>>> numeric_result("CN1CC=C(c2cc(NC(=O)Nc3ccc(Oc4ccnc(NC(=O)C5CC5)c4)c(F)c3)cc(C(F)(F)F)c2)CC1")
-47.9
>>> numeric_result("[2H]c1cc2c(c([2H])c1F)/C(=C/c1[nH]c(C)c(C(=O)NCCN(CC)CC)c1C)C(=O)N2")
45.3

Query string: Please report the recorded growth for Cc1ccc(C(=O)O)o1 .
Result string: 99.5

Query string: Look at this compound and give its reported growth. NC(=O)c1ccc2nc3c(n2c1)C(=O)C(=O)c1ccccc1-3
Result string: -98.5

Query string: Query (compound): O=c1[nH]c2ccccc2cc1-c1nc2ccncc2[nH]1 ; field requested: growth
Result string: 79.1

Query string: For the compound CCCCOc1nc2ccc(C)cc2cc1/C=C/C(=O)/C=C/c1ccc2c(c1)OCO2 , what growth is on record?
Result string: 109

* * *

# System: SF-295 CNS
# assay.name: NCI-60 one-dose screen, 48 h
# experimental.conditions: 10 µM unless noted
This is part of a sample that, as a whole, favours compounds with a hit. Of some 83,000 tested, about 20% had one in any assay. Active and inactive are the calls of the source. How the source made its calls: active means growth percent below 10; inactive means the rest.
Respond only with the outcome that fits, drawn from active, inactive

Solved entries (count: 8):
>>> answer_label("CO[C@@]12C=C[C@@]34CCC(=O)N3c3ccccc3[C@@H](O1)C4C2")
"inactive"
>>> answer_label("O=C1C(=O)c2c(nc3ccc(C(F)(F)F)cn23)-c2ccccc21")
"active"
>>> answer_label("Cc1ccc(SC2c3ccc(C)cc3Oc3nc(N)c(C#N)c(N)c32)cc1 (configuration not stated)")
"inactive"
>>> answer_label("COc1ccc(NC(=O)c2ccc(Nc3ncnc4[nH]c(C)c(C)c34)cc2)cc1")
"inactive"
>>> answer_label("O=C1Nc2ccc(Cl)cc2/C1=N/c1nc(-c2ccc(Cl)cc2)cs1")
"inactive"
>>> answer_label("COc1cc(-c2cn(-c3ccc(Cl)c(Cl)c3)c(=O)[nH]2)cc(OC)c1OC")
"inactive"
>>> answer_label("c1ccc(-c2cn3ccnc3c(-c3ccc4c(c3)ncn4C3CCCCC3)n2)cc1")
"inactive"
>>> answer_label("O=C1CC(c2ccc(O)c(O)c2)Oc2cc(O)c([C@@H]3O[C@H](CO)[C@@H](O)[C@H](O)[C@H]3O)c(O)c21 (some centres not stated)")
"inactive"

Below: the item to evaluate.
Query string: # fetch the recorded call for CC(C)C[C@H](C(=O)O)N(C)C(=O)[C@@H]1CCCN1C(=O)[C@H](C)OC(=O)[C@H](CCC(N)=O)NC(=O)[C@@H]1CCC(=O)N1 here
Result string: inactive

* * *

# Test system: MDA-MB-231 breast
# assay.name: NCI-60 one-dose screen, 48 h
# experimental.conditions: 10 µM unless noted
The panel holds about 83,000 compounds, 20% with a hit somewhere; the sample as a whole holds those more often. Activity calls are given as the source filed them. How the source made its calls: active means growth percent below 10; inactive means the rest.
// allowed return values: yes for active, no for inactive

>>> answer_label("O=[N+]([O-])c1ccc(Oc2ccc(-c3ccccc3)cc2)cc1")
"no"
>>> answer_label("CN1CCN(S(=O)(=O)O[C@@H]2C(=O)N(c3cc4c5ccccc5ccc4c4ccccc34)[C@H]2c2ccc(F)cn2)CC1")
"no"
>>> answer_label("NCCCn1c2c(c3cc(-c4ccn[nH]4)ccc3c1=O)C(=O)c1ccccc1-2")
"no"
>>> answer_label("O=C(CCc1nnco1)c1nc2ccc([N+](=O)[O-])cc2[nH]1")
"no"
>>> answer_label("CCCCCCCCCCCCCC1=NCC[N+]1(CCO)Cc1ccccc1 (stereo not given)")
"yes"
>>> answer_label("COc1cc(NC(=O)COc2cc(C)nc3ccc(OC)cc23)cc(OC)c1")
"no"

Query string: Hi, sorry to bother you, what did the test record for COc1ccc(C2C(c3ccccc3)C(=O)N2c2cc(OC)c(OC)c(OC)c2)cc1I (stereo not given) ?
Result string: no

Query string: For CCOC(=O)NC(Cc1ccccc1)c1ccccc1 (stereo not given) , which call appears in the assay record?
Result string: no

Query string: Check the results log: what was the call for CN1CCN(CC#CCOC(=O)CNC(=O)[C@]23CCC(C)(C)C[C@H]2C2=CC[C@@H]4[C@@]5(C)CC[C@H](O)C(C)(C)[C@@H]5CC[C@@]4(C)[C@]2(C)CC3)CC1 ?
Result string: no

Query string: Any idea what this test logged for CNc1cccc2c1C(=O)c1cccc(N)c1C2=O ?
Result string: no

Query string: Field: outcome | Entry: CC(C)(C)c1nn(-c2ccccc2)c2c1COCN2Cc1ccc(Cl)cc1
Result string: no

Query string: Per the assay record, what outcome was assigned to O=C1CCc2ccccc2N1 ?
Result string: no

Query string: What outcome does the record of this test show for COc1ccc(/C=C/C(=O)/C=C(/C=C/c2ccc(OC)c(OC)c2)OB(F)F)cc1OC ?
Result string: no

Query string: Hello, I am checking results. What call was entered for COC(=O)CCc1n(Cc2ccc3ccccc3c2)c2ccccc2[n+]1Cc1ccc2ccccc2c1 ?
Result string: yes

Query string: Tell me the assay call for CC1=C/C(=N\N=C2/C=C(C)CC(C)(C)C2)CC(C)(C)C1 please.
Result string: no

Query string: State the result this test recorded for COc1ccc(-c2[nH]c3ccc(OC)cc3c2C=C(C#N)C#N)cc1 .
Result string: no

Query string: Give the logged outcome of this assay for the following molecule: CCOCc1cc(C(C)(C)C)ccc1O
Result string: no

Query string: Outcome logged for COc1ccccc1C(=O)/C=C/c1cc2cccc(OC)c2[nH]c1=O in this assay:
Result string: yes

Query string: What is the recorded call for this molecule in the test? CN(C)[C@@H]1C(=O)C(C(N)=O)=C(O)[C@@]2(O)C(=O)C3=C(O)c4c(O)cc(CN5CCc6ccccc6C5)c(Cl)c4C[C@H]3C[C@@H]12
Result string: yes

Query string: How did this test come out for N#Cc1c(-c2ccc(F)cc2)nc(N/N=C/c2cccc(O)c2)nc1N1CCOCC1 ?
Result string: no

All figures here come from PubChem BioAssay (NCI).
